Assay: Ex vivo biodistribution of [18F]14 and [18F]15
Type: in vivo, Rj:NMRI-Foxn1^nu/nu mice
Details: mouse, small intestine with contents, iv, 0.2 nmol, 60 min post injection, i.v., baseline; read-out: S. I. (+cont.), small intestines
MEASURE: tissue uptake at 1 h (%ID/g)
Numbers only, in %ID/g.

C[C@@H](O)[C@@H]1NC(=O)[C@H](CCCCN)NC(=O)[C@@H](Cc2c[nH]c3ccccc23)NC(=O)[C@H](Cc2ccc(O)cc2)NC(=O)[C@@H](NC(=O)[C@@H](Cc2ccccc2)NC(=O)CCOCCOCCOCCOCCON=Cc2ccc(CNC(=O)OC3CCCc4cnnc(-c5ccc(CC(=O)NCC[N+](C)(C)C[B-](F)(F)F)cc5)c4CC3)cc2)CSSC[C@@H](C(=O)N[C@H](CO)[C@@H](C)O)NC1=O (some centres unmarked) [[^18F]14] | 2.6

Please find the next molecule below.
Quick one: tissue uptake at 1 h of C[C@@H](O)[C@@H]1NC(=O)[C@H](CCCCN)NC(=O)[C@@H](Cc2c[nH]c3ccccc23)NC(=O)[C@H](Cc2ccc(O)cc2)NC(=O)[C@@H](NC(=O)[C@@H](Cc2ccccc2)NC(=O)CCOCCOCCOCCOCCON=Cc2ccc(C(=O)NCCOCCOCCOCCNC(=O)OC3CCCc4cnnc(-c5ccc(CC(=O)NCC[N+](C)(C)C[B-](F)(F)F)cc5)c4CC3)cc2)CSSC[C@@H](C(=O)N[C@H](CO)[C@@H](C)O)NC1=O (some centres unmarked) [[^18F]15] ?
3.6

====

Could you please report measured tissue uptake at 1 h for the items listed next?
Assay: Ex vivo biodistribution of [18F]14 and [18F]15
Format: in vivo, Rj:NMRI-Foxn1^nu/nu mice
Settings: mouse, iv, 0.2 nmol, 60 min post injection, i.v., blocked with octreotide; read-out: kidney
Description: [^18F]14 and [^18F]15 in ≤4% ethanol–0.01 M PBS were administered intravenously (1.2 ± 0.0 and 2.0 ± 0.1 MBq, respectively, 0.2 nmol, 150 μL) to AR42J tumor-bearing Rj:NMRI-Foxn1^nu/nu mice. At predetermined time points (t = 30, 60, 120, and 240 min), animals were euthanized with CO2 asphyxiation and cervical dislocation, and then the organs were harvested, washed with water, and blotted dry, following with weighing and γ counting from which the % ID/g in tissues was determined.
Answer as a quantity: numeral, then unit.

C[C@@H](O)[C@@H]1NC(=O)[C@H](CCCCN)NC(=O)[C@@H](Cc2c[nH]c3ccccc23)NC(=O)[C@H](Cc2ccc(O)cc2)NC(=O)[C@@H](NC(=O)[C@@H](Cc2ccccc2)NC(=O)CCOCCOCCOCCOCCON=Cc2ccc(CNC(=O)OC3CCCc4cnnc(-c5ccc(CC(=O)NCC[N+](C)(C)C[B-](F)(F)F)cc5)c4CC3)cc2)CSSC[C@@H](C(=O)N[C@H](CO)[C@@H](C)O)NC1=O (some centres unmarked) [[^18F]14] | 11.4 %ID/g

Fill in the blank: the reported tissue uptake at 1 h of C[C@@H](O)[C@@H]1NC(=O)[C@H](CCCCN)NC(=O)[C@@H](Cc2c[nH]c3ccccc23)NC(=O)[C@H](Cc2ccc(O)cc2)NC(=O)[C@@H](NC(=O)[C@@H](Cc2ccccc2)NC(=O)CCOCCOCCOCCOCCON=Cc2ccc(C(=O)NCCOCCOCCOCCNC(=O)OC3CCCc4cnnc(-c5ccc(CC(=O)NCC[N+](C)(C)C[B-](F)(F)F)cc5)c4CC3)cc2)CSSC[C@@H](C(=O)N[C@H](CO)[C@@H](C)O)NC1=O (some centres unmarked) [[^18F]15] is ____.
15.9 %ID/g
